Cited source for all entries: patent US20220033481A1

Target: T1, cynomolgus monkey transferrin (cynomolgus monkey, UniProt A0A2K5UXZ0 20-695)
T1 construct: also called cynomolgus transferrin
Experiment: SPR, BIAcore T200, cynomolgus monkey transferrin as ligand, sdAb as analyte
Listing of recorded kon by entry.
Give your result in M⁻¹ s⁻¹ as a bare value.

- binder: "AS01299VH3a-L47 (VHH, Humanized variant of AS01299, C-terminal 6xHis tag; also called AS01299VH3a-L47-2) VHH: EVQLVESGGGLVQPGGSLRLSCAASGSIFSIATMAWYRQAPGKGLEWVAGITRSGSTNYRDSVKGRFTISRDNSKNTMYLQMNSLRAEDTAVYYCTDYSSRYYHDYWGQGTLVTVSS"
  result: "8.9e+06"

INPUT: # input binder: AS01299 sdAb (VHH, Llama sdAb made in E. coli with a C-terminal 6xHis tag; also called sdAb AS01299) VHH: QVQLVESGGGLVQPGGSLRLSCAASGSIFSIATMAWYRQAPGKQRELVAGITRSGSTNYRDSVKGRFTISRDNAKNTMYLQMNSLKPEDTAVYYCTDYSSRYYHDYWGQGTQVTVSS ; wanted: its kon
OUTPUT: 8.6e+06
